The measured values listed here are drawn from patent US20240382481A1.

pIC50: −log10 of the molar value.
// pIC50 collected for UniProt:P78362
Sequence (P78362 whole entry, species assumed): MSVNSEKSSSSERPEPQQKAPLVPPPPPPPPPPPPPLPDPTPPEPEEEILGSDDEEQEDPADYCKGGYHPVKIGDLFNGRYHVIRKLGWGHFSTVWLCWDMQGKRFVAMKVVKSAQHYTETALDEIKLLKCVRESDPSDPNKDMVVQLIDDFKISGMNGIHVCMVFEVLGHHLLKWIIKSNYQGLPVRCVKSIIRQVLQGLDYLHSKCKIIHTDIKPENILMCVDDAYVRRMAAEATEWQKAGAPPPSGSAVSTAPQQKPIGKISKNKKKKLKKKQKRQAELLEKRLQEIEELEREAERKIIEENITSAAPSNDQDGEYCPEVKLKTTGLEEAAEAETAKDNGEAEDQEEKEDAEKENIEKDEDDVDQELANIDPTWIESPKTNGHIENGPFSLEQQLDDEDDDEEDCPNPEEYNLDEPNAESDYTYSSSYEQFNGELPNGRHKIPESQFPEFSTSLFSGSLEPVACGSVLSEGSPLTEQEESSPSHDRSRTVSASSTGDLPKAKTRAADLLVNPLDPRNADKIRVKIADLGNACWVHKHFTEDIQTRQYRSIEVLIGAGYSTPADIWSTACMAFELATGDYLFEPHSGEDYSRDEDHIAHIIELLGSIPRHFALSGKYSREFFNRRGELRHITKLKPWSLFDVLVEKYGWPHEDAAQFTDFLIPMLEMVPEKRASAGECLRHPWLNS

As a guide, the following entries are already answered.
[
  {
    "smi": "CN(c1ncccc1CNc1cccc(-c2nc3cc(Cl)ccc3n2C)n1)S(C)(=O)=O",
    "pIC50": "6.30 to 7.30"
  },
  {
    "smi": "CN(c1ncccc1CNc1ccnc(-c2nc3cc(Cl)c(Cl)cc3n2C)n1)S(C)(=O)=O",
    "pIC50": "6.30 to 7.30"
  },
  {
    "smi": "CN(c1ncccc1CNc1ccnc(-c2nc3cc(C(C)(C)C)c(F)cc3[nH]2)n1)S(C)(=O)=O",
    "pIC50": "5.60 to 6.30"
  }
]

Kindly review the next compound as well.
Look up and report pIC50, with UniProt:P78362 as system, for CN(c1ncccc1Cn1c(=O)ccc2cnc(-c3nc4cc(Cl)ccc4[nH]3)cc21)S(C)(=O)=O
6.30 to 7.30

====

// IC50 collected for SRPK1 (Homo sapiens)

[
  {
    "smi": "Cc1cc2cnc(-c3nc4cc(Cl)ccc4n3C)nc2n1Cc1cccnc1N(C)S(C)(=O)=O",
    "readout.name": "IC50",
    "result": "< 50 nM"
  }
]

Look up and report IC50, with SRPK1 (Homo sapiens) as system, for CCn1c(-c2nccc(NCc3cccnc3N(C)S(C)(=O)=O)n2)nc2cc(Cl)ccc21
Sequence (Q96SB4 whole entry, species assumed): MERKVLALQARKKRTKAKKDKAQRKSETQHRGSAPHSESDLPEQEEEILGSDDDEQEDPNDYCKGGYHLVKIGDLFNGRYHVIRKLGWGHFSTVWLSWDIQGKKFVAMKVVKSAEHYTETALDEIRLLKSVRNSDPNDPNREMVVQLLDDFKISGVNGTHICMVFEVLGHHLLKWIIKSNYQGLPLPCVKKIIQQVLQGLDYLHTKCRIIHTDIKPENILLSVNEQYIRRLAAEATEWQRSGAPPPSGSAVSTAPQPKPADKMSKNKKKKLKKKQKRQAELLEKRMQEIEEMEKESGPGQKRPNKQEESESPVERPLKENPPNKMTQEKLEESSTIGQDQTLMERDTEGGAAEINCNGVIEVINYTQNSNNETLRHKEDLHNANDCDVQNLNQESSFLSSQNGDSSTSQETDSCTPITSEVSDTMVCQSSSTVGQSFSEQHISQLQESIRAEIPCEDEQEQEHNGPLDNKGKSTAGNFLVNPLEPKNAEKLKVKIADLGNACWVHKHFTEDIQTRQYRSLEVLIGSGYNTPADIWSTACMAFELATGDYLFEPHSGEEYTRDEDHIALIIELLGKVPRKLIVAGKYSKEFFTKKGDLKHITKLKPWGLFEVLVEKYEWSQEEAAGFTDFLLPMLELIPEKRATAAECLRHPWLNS
< 50 nM

Look up and report IC50, with SRPK1 (Homo sapiens) as system, for CN(c1ncccc1Cn1c(=O)ccc2cnc(-c3nc4cc(Cl)ccc4[nH]3)cc21)S(C)(=O)=O
50 to 500 nM

Look up and report IC50, with SRPK1 (Homo sapiens) as system, for Cc1cc(Cl)cc2nc(-c3nccc(NCc4cccnc4N(C)S(C)(=O)=O)n3)[nH]c12
< 50 nM

Look up and report IC50, with SRPK1 (Homo sapiens) as system, for CN(c1ccccc1CNc1cccc(-c2nc3cc(Cl)ccc3[nH]2)n1)S(C)(=O)=O
< 50 nM

====

IC50 reference
biological target: SRPK3/MSSK1/STK23 (Homo sapiens, UniProt Q9UPE1); assay: biochemical
Sequence (Q9UPE1 whole entry): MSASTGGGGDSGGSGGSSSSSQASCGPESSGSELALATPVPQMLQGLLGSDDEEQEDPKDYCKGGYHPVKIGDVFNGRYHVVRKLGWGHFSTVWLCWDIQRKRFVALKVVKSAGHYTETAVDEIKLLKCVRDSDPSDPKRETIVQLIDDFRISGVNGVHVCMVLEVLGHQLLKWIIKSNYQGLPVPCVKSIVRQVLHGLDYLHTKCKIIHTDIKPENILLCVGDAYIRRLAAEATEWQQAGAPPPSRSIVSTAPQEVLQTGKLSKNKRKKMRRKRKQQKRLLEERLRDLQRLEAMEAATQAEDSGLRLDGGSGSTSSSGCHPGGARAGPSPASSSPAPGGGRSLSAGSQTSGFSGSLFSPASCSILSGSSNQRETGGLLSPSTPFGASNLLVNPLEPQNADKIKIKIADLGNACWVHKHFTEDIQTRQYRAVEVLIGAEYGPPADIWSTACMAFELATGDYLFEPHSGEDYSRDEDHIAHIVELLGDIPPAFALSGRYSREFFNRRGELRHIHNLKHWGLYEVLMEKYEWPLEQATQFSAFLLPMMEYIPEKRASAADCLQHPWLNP

[
  {
    "molecule": "Cc1cc2cnc(-c3nc4cc(Cl)c(Cl)cc4n3C)nc2n1Cc1cccnc1N(C)S(C)(=O)=O [Compound B22]",
    "result": "50 to 500 nM"
  }
]

Entry CN(c1ncccc1CNc1cccc(-c2nc3cc(Cl)ccc3n2C)n1)S(C)(=O)=O [Compound B6] needs its IC50 filled in; supply it.
< 50 nM

Entry Cc1cc(Cl)cc2nc(-c3nccc(NCc4cccnc4N(C)S(C)(=O)=O)n3)[nH]c12 [Compound B9] needs its IC50 filled in; supply it.
< 50 nM

Entry CN(c1ncccc1Cn1c(=O)ccc2cnc(-c3nc4cc(Cl)ccc4[nH]3)cc21)S(C)(=O)=O [Compound B20] needs its IC50 filled in; supply it.
500 to 2500 nM

Entry CCN(c1ncccc1Cn1ccc2cnc(-c3nc4cc(Cl)ccc4[nH]3)cc21)S(C)(=O)=O [Compound B16] needs its IC50 filled in; supply it.
50 to 500 nM

Entry Cc1cc2cnc(-c3nc4cc(Cl)ccc4n3C)nc2n1Cc1cccnc1N(C)S(C)(=O)=O [Compound B21] needs its IC50 filled in; supply it.
50 to 500 nM

Entry CN(c1ncccc1CNc1ccnc(-c2nc3cc(C(C)(C)C)c(F)cc3[nH]2)n1)S(C)(=O)=O [Compound B18] needs its IC50 filled in; supply it.
< 50 nM
